system: antibodies in sera from SARS patients (sera 1a, 1b, 2, 6, 37, 62, London, SARS-yellow, SARS-green); format: binding, human; parameters: unit not given here
recordedMetric: Binding of serum 6 to looped/cyclic peptides of protein N of SARS-CoV Urbani

> print(dat)
    monomersequence  value
 1  SRQLQNSMSGASADS    0.1
 2  QGLPNNTASWFTALT    0.3
 3  SRSSSRSRGNSRNST    0.3
 4  PTVTLLPAADMDDFS    0.1
 5  MDDFSRQLQNSMSGA    0.1
 6  GQGVPINTNSGPDDQ    0.1
 7  KDNVILLNKHIDAYK    0.1
 8  SSSRSRGNSRNSTPG    0.2
 9  DKKKKTDEAQPLPQR    0.1
10  EQTQGNFGDQDLIRQ    0.3
